Where these numbers come from: patent US20260355171A1

Experiment: Tissue (brain/lung) exposure, IP administration
Format: in vivo, mouse
Settings: mouse, plasma, ip, 10 mg/kg, 0.5 h, mean, read-out: Total Plasma Concentration, mean
Procedure: For the tissue collection, at 0.5, 4 and 24 h following IP administration, mice were anaesthetised (using gaseous isoflurane). […] The concentration of compound 22 in brain or lung parenchyma was calculated on the basis of the measured concentration in brain or lung homogenate, after correcting for the contribution of compound contained within the vascular space of brain or lung samples as follows: […]
metric: concentration at 0.5 h

Req: I am curious: what concentration at 0.5 h value has been reported for NC(=O)C1CCN(c2ncccc2CNCc2cccc3[nH]ccc23)CC1 [Compound 22] ?
Resp: 1580 nM

###

Assay: Mouse pharmacokinetics, IV administration
Assay type: in vivo
Conditions: mouse, plasma, iv, 3 mg/kg, male C57BL/6 mice, terminal phase not clearly defined, approximation only, read-out: Apparent t1/2 (converted)
Procedure: Pharmacokinetic parameters of compound 22 (prepared in accordance with Example 2) were determined following intravenous (IV, 3 mg/kg) and intraperitoneal (IP, 10 mg/kg) administration to male C57BL/6 mice. […] Concentrations of test compound in plasma and tissue samples were determined using a liquid chromatography with tandem mass spectrometry (LCMS/MS) method validated for linearity, accuracy, precision, matrix factor and recovery (refer to Table 5). […]
metric: half-life

Req: I am curious: what half-life value has been reported for NC(=O)C1CCN(c2ncccc2CNCc2cccc3[nH]ccc23)CC1 [Compound 22] ?
Resp: ~14 h

###

Assay: Tissue (brain/lung) exposure, IP administration
Assay type: in vivo, mouse
Conditions: mouse, brain, ip, 10 mg/kg, 0.5 h, individual mice, read-out: B:P ratio (brain:plasma), individual
metric: Kp at 0.5 h
Output spec: single numeric token, no unit.

Req: I am curious: what Kp at 0.5 h value has been reported for NC(=O)C1CCN(c2ncccc2CNCc2cccc3[nH]ccc23)CC1 ?
Resp: 0.18
